Values were extracted from ChEMBL document CHEMBL1201862.

# Test system: K562
# Assay Summary: NCI tumour cell line growth inhibition, 48 h
Calls of active or inactive are those of the source. Rule as the data show it: active = GI50 up to about 1.1 µM and inactive = higher.
// GI50 lookup, one value per entry

Example cases with answers are listed next.
>  <Compound>
CCOC(=O)C(C)(Cc1ccc(O)cn1)NC(=O)c1ccccc1 (stereo unspecified)

>  <Experimental Value>
> 100 µM (inactive)

$$$$
>  <Compound>
O=C1c2ccccc2C(=O)c2cc3c(cc21)C[S+]([O-])C3

>  <Experimental Value>
> 100 µM (inactive)

$$$$
>  <Compound>
Nc1c(-c2ccc(-c3c(N)[n+]([O-])c4ccccc4[n+]3[O-])cc2)[n+]([O-])c2ccccc2[n+]1[O-]

>  <Experimental Value>
15.7 µM (inactive)

$$$$
>  <Compound>
CCN(CCCN(CC)C(=O)Nc1ccccc1)C(=O)Nc1ccccc1

>  <Experimental Value>
> 100 µM (inactive)

$$$$
>  <Compound>
O=C(O)CN(c1ccccc1)S(=O)(=O)c1ccc([N+](=O)[O-])cc1

>  <Experimental Value>
> 100 µM (inactive)

$$$$

Now consider the entry below.
Query O=CN1CCN(C(=O)c2ccc(Cl)cc2Cl)C1=S yields GI50 of 85.5 µM (inactive)
